Reference for the values: paper doi:10.1101/2025.09.30.679600

# study system: 53BP1 tandem Tudor domain (TTD) (Homo sapiens)
# Construct: DEL screens targeting the tandem Tudor domain (TTD) of 53BP1
# Sequence (Q12888 1484-1603 limits assumed): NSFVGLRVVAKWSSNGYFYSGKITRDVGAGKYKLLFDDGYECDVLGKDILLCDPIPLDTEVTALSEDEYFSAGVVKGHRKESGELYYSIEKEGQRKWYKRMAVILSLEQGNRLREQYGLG
# assay protocol: 53BP1 TR-FRET displacement assay
# condition context: mean ± SD of at least three replicates
As shown below, each of these compounds has a reported pIC50 value.
The read-out pIC50 is expressed as -log10 of concentration in moles per litre.

[
  {
    "compound": "CN1CCN(c2ccccc2NC(=O)c2cc3ccccc3[nH]2)CC1 [UNC10413788A]",
    "pIC50": 4.66
  }
]

Recorded pIC50 for CCN1CCN(c2ccccc2NC(=O)c2cc(O)c3ccccc3c2)CC1 [UNC10414641A] , please?
4.24

Which pIC50 value is on record for COc1ccc(C(CNC2=NS(=O)(=O)c3ccccc32)N2CCCC2)cc1 (centres unmarked) [UNC10413807A] ?
4.37

If you can, please state the reported pIC50 value of Cc1ccc(C(CNC2=NS(=O)(=O)c3ccccc32)N2CCCC2)cc1 (centres unmarked) [UNC10414645A] .
4.47

Field request: pIC50 | item: CN1CCC(Nc2ccccc2NC(=O)c2cccc(F)c2)CC1 [UNC10413800A]
4.27
